target: rat RXFP2 (Rattus norvegicus, UniProt F7EMH8); test: INSL3-stimulated CYP11B1 mRNA expression in H295R stably expressing rat RXFP2; assay type: cell-based; set-up: expressed in transfected cells; details: INSL3 EC80 (3.5 nM), 48 h, qPCR; N = 2
Sequence (F7EMH8 20-737): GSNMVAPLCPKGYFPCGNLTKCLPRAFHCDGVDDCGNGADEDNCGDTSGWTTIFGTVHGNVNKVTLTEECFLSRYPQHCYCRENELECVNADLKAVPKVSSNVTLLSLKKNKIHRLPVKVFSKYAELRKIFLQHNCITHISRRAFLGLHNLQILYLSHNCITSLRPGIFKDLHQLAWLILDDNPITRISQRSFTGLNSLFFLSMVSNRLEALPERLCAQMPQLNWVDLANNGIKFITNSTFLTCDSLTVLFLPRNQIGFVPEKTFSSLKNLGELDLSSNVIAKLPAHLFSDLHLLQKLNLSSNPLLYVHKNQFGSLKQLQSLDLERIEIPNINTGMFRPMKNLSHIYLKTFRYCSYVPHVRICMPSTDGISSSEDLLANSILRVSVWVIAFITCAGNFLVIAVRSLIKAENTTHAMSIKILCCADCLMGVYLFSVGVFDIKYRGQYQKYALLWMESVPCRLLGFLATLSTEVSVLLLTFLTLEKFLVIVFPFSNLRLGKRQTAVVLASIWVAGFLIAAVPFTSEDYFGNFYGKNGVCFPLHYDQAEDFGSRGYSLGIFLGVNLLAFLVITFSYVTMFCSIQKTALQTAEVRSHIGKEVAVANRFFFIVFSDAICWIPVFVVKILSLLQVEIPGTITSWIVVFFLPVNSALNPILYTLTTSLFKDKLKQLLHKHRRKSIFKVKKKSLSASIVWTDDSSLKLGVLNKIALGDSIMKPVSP
OBSERVATION_TYPE: IC50

INSERT INTO measurements (molecule, observed_measurement) VALUES
  ('3F3: RXFP2 monoclonal antibody from hybridoma, recombinantly expressed in a rat IgG2b backbone (antibody, V domains shown) VH: QVQLQQPGSVLVRPGASVKLSCKASGYIFTSYWMHWVKQRPGQGLEWIGEIYPNSGRTSYNEKFKGKATVTVDTSSSTAYVDLSSLTSEDSAVYYCASGGHWFAYWGQGTLVTVSA VL: DIQMTQSSSSFSVSLGDRVTITCKASEDIYNRLAWYQQKPGNAPRLLISGATSLEAGVPSRFSGSGSGKDYTLSITSLQTEDVSTYYCQQYWITPYTFGGGTKLEIK', '3.85 nM'),
  ('2D4: RXFP2 monoclonal antibody from hybridoma, recombinantly expressed in a rat IgG2b backbone (antibody, V domains shown) VH: QVQLKESGPGLVAPSQSLSITCTVSGFSLTTYGISWVRQPPGKGLEWLGVIWTGGGTNYNSALKSRLSISKDNSKSQVFLKMNSLQTDDTARYYCARTEGYYVMDYWGQGTSVTVSS VL: DIQMTQSPASLSVSVGETVTITCRASENIYSNLVWYQQKQGKSPQLLVYAATNLADGVPSRFSGSGSGTQYSLKINNLQSEDFGTYYCQHFWGPPWTFGGGTKLEIK', '0.14 nM'),
  ('4G6: Human/rat cross-reactive RXFP2 monoclonal antibody, rat IgG2b backbone; binds the LDLa domain (antibody, V domains shown) VH: EVQLQQSGPELVKPGASVKLSCKASGYTFTSYVMHWVKQKPEQGLEWIGYKNPSNDGIKYNEKFKGKATLTSDKSSNIAYMELFSLTSEDSAVYYCARSDFGSVWAMDYWGQGTSVTVSS VL: SIVMTQTPKFLLVSAGDRVTITCKASQSVNDDIVWYQQKPGQSPKLLIYYASNRYTGVPDRFTGSGYGTDFTFTISTVQAGDLAVYFCQQDYSSPFTFGSGTKLEIK', '0.33 nM'),
  ('4H5: RXFP2 monoclonal antibody from hybridoma, recombinantly expressed in a rat IgG2b backbone (antibody, V domains shown) VH: QVQLKQSGPGLVQPSQSLSITCTVSGFSLTNYGVHWVRQSPGKGLEWLGVIWRDGNTDYNAAFMSRLSITKDNSKSQVFFEMNSLQVDDTAIYYCCRGDGYYAMGYWGQGTSVTVSS VL: DIQMTQSPASLSVSVGETVTITCRASENIYSNLAWYQQRQGRSPQLLVYAATNLADGVPSRFSGSGSGTQYSLKINSLQSEDFGNYYCQHFWGSPRTFGGGTKLEIK', '0.21 nM');

src = paper PMC11162469
